# experimentSummary: Solubility of peptide compounds in buffer formulations (Table 5)
# Type: physicochemical
# conditionContext: aqueous buffer; 50 mM phosphate buffer pH 6.5, 2 h agitation, target 1 mg/ml; read-out: Solubility, Buffer pH 6.5
Bridge positions count the residues as written; N and C are the ends. Square brackets hold non-standard residues; d marks the D form. Peptide text beside a SMILES is read from it. * marks the point of attachment. Trp(7-Me) = Cc1cccc2c(C[C@H](N)C(=O)O)c[nH]c12; 2Nal = N[C@@H](Cc1ccc2ccccc2c1)C(=O)O; 3Pal = N[C@@H](Cc1cccnc1)C(=O)O; 12Ado = NCCCCCCCCCCCC(=O)O; Thp = NC1(C(=O)O)CCOCC1; Me2NCH2CH2 = CN(C)CC*; Aib = CC(C)(N)C(=O)O; Sar = CNCC(=O)O
measuredAttribute: solubility at 2 h (µg/mL)
Give the value in µg/mL but do not write µg/mL after it.

Lab note: Cc1cccc2c(C[C@@H]3NC(=O)CCCCCCCCCCCNC(=O)CC[C@@H](C(=O)N[C@@H](CC(N)=O)C(=O)N[C@@H](Cc4cccnc4)C(=O)N(C)CC(N)=O)NC(=O)C(C)(C)NC(=O)[C@H](Cc4ccc5ccccc5c4)NC(=O)[C@H](Cc4ccc(OCCN(C)C)cc4)NC(=O)C4(CCOCC4)NC(=O)[C@H](CCC(N)=O)NC3=O)c[nH]c12 [compound 2] ([12Ado][Trp(7-Me)]Q[Thp]Y(Me2NCH2CH2)[2Nal][Aib]EN[3Pal][Sar]-NH2; lactam N-8) gave solubility at 2 h of 220
